We begin with a simple list: items and their reported KIDNEY_L.
- Species: Rattus norvegicus
- Procedure summary: Open TG-GATES - Regimen: Single
- Format: toxicity, organism-based, Sprague-Dawley
- Set-up: regimen Single, gender Male, age 6 weeks
- Assay setup: in vivo, po, 0 mg/kg, 6 h, tissue Kidney, route gavage, dose level Control
Parameter measured: KIDNEY_L (g)

Compound	Parameter measured	Value units	Result
C=C[C@H]1C[N@@]2CC[C@H]1C[C@@H]2[C@@H](O)c1ccnc2ccc(OC)cc12 [QUINIDINE]	KIDNEY_L	g	1
COc1ccc([C@@H]2Sc3ccccc3N(CCN(C)C)C(=O)[C@@H]2OC(C)=O)cc1 [DILTIAZEM]	KIDNEY_L	g	0.8
CC(=O)[C@@]1(O)CC[C@H]2[C@@H]3C=C(Cl)C4=CC(=O)CC[C@]4(C)[C@H]3CC[C@@]21C [CHLORMADINONE]	KIDNEY_L	g	0.9
Nc1ccc(Cc2ccc(N)cc2)cc1	KIDNEY_L	g	0.9
CCCCNC(=O)NS(=O)(=O)c1ccc(C)cc1 [TOLBUTAMIDE]	KIDNEY_L	g	0.9
CN(C/C=C/C#CC(C)(C)C)Cc1cccc2ccccc12 [TERBINAFINE]	KIDNEY_L	g	1
CCO [ALCOHOL]	KIDNEY_L	g	0.9
CC(S)C(=O)NCC(=O)O (configuration not stated) [TIOPRONIN]	KIDNEY_L	g	0.9
CN(C)CCCN1c2ccccc2Sc2ccc(Cl)cc21 [CHLORPROMAZINE]	KIDNEY_L	g	1
O=C(O)c1ccccc1Nc1ccccc1 [FENAMIC ACID]	KIDNEY_L	g	0.9
O=c1ccc2ccccc2o1 [COUMARIN]	KIDNEY_L	g	0.8
COc1cc2ncnc(Nc3ccc(F)c(Cl)c3)c2cc1OCCCN1CCOCC1 [GEFITINIB]	KIDNEY_L	g	0.9

* * *

- Species: Rattus norvegicus
- Procedure summary: Open TG-GATES - Regimen: Daily Repeat
- Assay type: toxicity, organism-based, Sprague-Dawley
- Parameters: regimen Daily Repeat, gender Male, age 6 weeks
- Assay setup: in vivo, po, 1000 mg/kg, […], tissue Blood, route gavage, dose level High, time 28 day
Parameter measured: WBC (x10_2/uL)

Molecule	Result
CC(S)C(=O)NCC(=O)O (centres undefined) [TIOPRONIN]	124
CC(=O)[C@@]1(O)CC[C@H]2[C@@H]3C=C(Cl)C4=CC(=O)CC[C@]4(C)[C@H]3CC[C@@]21C [CHLORMADINONE]	94.9
O=C(O)c1ccccc1Nc1ccccc1 [FENAMIC ACID]	154.4
CCCCNC(=O)NS(=O)(=O)c1ccc(C)cc1 [TOLBUTAMIDE]	118.3

* * *

We begin with a simple list: items and their reported PT.
- Species: Rattus norvegicus
- Procedure summary: Open TG-GATES - Regimen: Daily Repeat
- Assay type: toxicity, organism-based, Sprague-Dawley
- Set-up: regimen Daily Repeat, gender Male, age 6 weeks
- Assay setup: in vivo, po, 300 mg/kg, […], tissue Blood, route gavage, dose level Middle, time 14 day

Molecule	Value units	PT
CCCCNC(=O)NS(=O)(=O)c1ccc(C)cc1 [TOLBUTAMIDE]	s	12.8
O=C(O)c1ccccc1Nc1ccccc1 [FENAMIC ACID]	s	13.8
CC(S)C(=O)NCC(=O)O (centres undefined) [TIOPRONIN]	s	15.5
CC(=O)[C@@]1(O)CC[C@H]2[C@@H]3C=C(Cl)C4=CC(=O)CC[C@]4(C)[C@H]3CC[C@@]21C [CHLORMADINONE]	s	14.8
